These measurements were taken from ChEMBL document CHEMBL4725481.

# Experiment summary: Antiviral activity against HIV 1 NL4-3 infected in human MT4 cells assessed as reduction in viral replication and measured on day 3 post infection by Nano-glo luciferase reporter assay
# Format: functional, cell-based
# Details: Homo sapiens, NL4-3, MT4, 72 h; read-out: IC50
Quantity: IC50

Below are worked cases with known answers.
Item smiles: C=C(C)[C@@H]1CC[C@]2(C(=O)OC)CC[C@]3(C)[C@H](CC[C@@H]4[C@@]5(C)C[C@@H](Cc6cn([C@H]7C[C@H](n8cc(C)c(O)nc8=O)O[C@@H]7CO)nn6)[C@H](O)C(C)(C)[C@@H]5CC[C@]43C)[C@@H]12
IC50: > 1300 nM
//
Item smiles: C=C(C)[C@@H]1CC[C@]2(C(=O)O)CC[C@]3(C)[C@H](CC[C@@H]4[C@@]5(C)C[C@@H](Cc6cn([C@H]7C[C@H](n8cc(C)c(O)nc8=O)O[C@@H]7CO)nn6)[C@H](O)C(C)(C)[C@@H]5CC[C@]43C)[C@@H]12
IC50: > 1300 nM

Attention now turns to another entry.
# lookup: IC50 of C=C(C)[C@@H]1CC[C@]2(C(=O)O)CC[C@]3(C)[C@H](CC[C@@H]4[C@@]5(C)CC[C@H](OC(=O)CC(C)(C)C(=O)O)C(C)(C)[C@@H]5CC[C@]43C)[C@@H]12
> 21 nM
